# credit: patent US11820756B2

Listed here: items and their measured pIC50.
Biological target: human bradykinin B2 receptor (hB2R) (Homo sapiens, UniProt P30411)
Sequence (P30411 1-391): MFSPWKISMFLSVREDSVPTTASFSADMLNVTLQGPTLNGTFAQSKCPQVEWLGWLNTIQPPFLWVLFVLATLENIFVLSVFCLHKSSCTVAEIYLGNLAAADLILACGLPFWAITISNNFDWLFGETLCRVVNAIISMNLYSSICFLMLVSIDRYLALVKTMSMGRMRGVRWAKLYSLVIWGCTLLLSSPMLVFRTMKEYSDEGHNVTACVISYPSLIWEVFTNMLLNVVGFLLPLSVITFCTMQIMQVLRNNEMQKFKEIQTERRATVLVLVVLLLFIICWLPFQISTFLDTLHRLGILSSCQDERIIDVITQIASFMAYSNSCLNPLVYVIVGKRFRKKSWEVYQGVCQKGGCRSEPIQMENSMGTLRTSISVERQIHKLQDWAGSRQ
Experiment: cell-based human bradykinin B2 receptor calcium mobilization (hB2R-CaM) assay
Settings: HTS041C cells, bradykinin at EC80, calcium mobilization; read-out: IC50-value towards human bradykinin B2 receptor (hB2R)
pIC50: −log10 of the molar value.

| Compound | pIC50 |
| --- | --- |
| Cc1cc(-c2ncnn2C)c2cccc(OCc3c(Cl)cc(F)cc3[C@H](C)NC(=O)[C@@H]3CC[C@H](C)O3)c2n1 | ≥ 7.30 |
| [2H][C@@](C)(NC(=O)C(C)(F)F)c1cc(F)cc(Cl)c1COc1cccc2c(-c3ncnn3C)cc(C)nc12 | ≥ 7.30 |
| CC[C@H](NC(=O)c1ccon1)c1cc(F)cc(Cl)c1COc1cccc2c(-c3ncnn3C)cc(C)nc12 | ≥ 7.30 |
| Cc1cc(-n2ncnc2C)c2cccc(OCc3c(Cl)cc(F)cc3[C@H](C)NC(=O)COC(F)F)c2n1 | ≥ 7.30 |
| [2H]C([2H])([2H])[C@]([2H])(NC(=O)COC(F)F)c1cc(F)cc(Cl)c1COc1cccc2c(-c3ncnn3C)cc(C)nc12 [Compound 11A] | ≥ 7.30 |
| Cc1cc(-n2cc(F)cn2)c2cccc(OCc3c(Cl)cc(F)cc3[C@H](C)NC(=O)[C@H]3COC(=O)N3)c2n1 | 6.60 to 7.29 |
| CCC[C@H](O)C(=O)N[C@@H](C)c1cc(F)cc(Cl)c1COc1cccc2c(-n3cc(F)cn3)cc(C)nc12 | 6.60 to 7.29 |
| [2H]C([2H])([2H])[C@H](NC(=O)c1cocn1)c1cc(F)cc(Cl)c1COc1cccc2c(-c3ncnn3C)cc(C)nc12 | ≥ 7.30 |
| Cc1cc(-n2cc(F)cn2)c2cccc(OCc3c(Cl)cc(F)cc3[C@H](C)NC(=O)C(C)C(F)(F)F)c2n1 (stereo partly drawn) | 6.60 to 7.29 |
